Task for the reader: assign each of the following compounds its reported log10 of IC80.
# Test system: Nakaseomyces glabratus
# test: Antifungal activity against Candida glabrata 20/I after 48 hrs by microdilution method
# Assay type: functional
On a log10 scale: recorded IC80, unit µM.

Use the examples below as a reference point.
[[record]]
compound = "O=C1C=CC(=O)C1=Cc1cccs1"
test_value = 1.19

[[record]]
compound = "O=C1C=CC(=O)C1=Cc1ccc(F)cc1"
test_value = 1.49

[[record]]
compound = "O=C1C=CC(=O)C1=Cc1cccc(Br)c1"
test_value = 1.80

[[record]]
compound = "COc1ccc(C=C2C(=O)C=CC2=O)cc1"
test_value = 0.89

[[record]]
compound = "COC(/C=C/c1ccccc1)=C1\\C(=O)C=C(C)C1=O [CORUSCANONE A]"
test_value = 2.10

[[record]]
compound = "Cc1ccc(C=C2C(=O)C=CC2=O)cc1"
test_value = 1.19


Report log10 of IC80 for each item below.
1. O=C1C=CC(=O)C1=Cc1ccc(Cl)cc1
2. O=C1C=CC(=O)C1=Cc1ccco1
3. O=C1C=CC(=O)C1=Cc1ccc2ccccc2c1

[1.80, 1.19, 1.49]

----------
# System: HT-29
# test: Cytostatic activity against human HT-29 cells at 10 umol/L after 72 hrs by XTT assay
# Format: ADME, cell-based
# condition-description: ht-29, 72 h, 10 µM
parameter: Activity

[[record]]
smiles_notation = "Cc1ccc(C=C2C(=O)C=CC2=O)cc1"
measured_on = "HT-29"
test_value = "Non-toxic"

[[record]]
smiles_notation = "O=C1C=CC(=O)C1=Cc1cccc(Br)c1"
measured_on = "HT-29"
test_value = "Non-toxic"

[[record]]
smiles_notation = "O=C1C=CC(=O)C1=Cc1ccc2ccccc2c1"
measured_on = "HT-29"
test_value = "Non-toxic"

[[record]]
smiles_notation = "O=C1C=CC(=O)C1=Cc1ccc(F)cc1"
measured_on = "HT-29"
test_value = "Non-toxic"

[[record]]
smiles_notation = "O=C1C=CC(=O)C1=Cc1ccc(Br)cc1"
measured_on = "HT-29"
test_value = "Non-toxic"

[[record]]
smiles_notation = "O=C1C=CC(=O)C1=C/C=C/c1ccc(Cl)cc1"
measured_on = "HT-29"
test_value = "Non-toxic"

[[record]]
smiles_notation = "Cc1ccc(/C=C/C=C2C(=O)C=CC2=O)cc1"
measured_on = "HT-29"
test_value = "Non-toxic"

[[record]]
smiles_notation = "O=C1C=CC(=O)C1=C/C=C/c1ccccc1"
measured_on = "HT-29"
test_value = "Non-toxic"


For every item in the list below, what is its measured Activity?
1. O=C1C=CC(=O)C1=Cc1ccc(Cl)cc1
2. O=C1C=CC(=O)C1=Cc1ccccc1
3. O=C1C=CC(=O)C1=Cc1cccs1
4. O=C1C=CC(=O)C1=Cc1ccco1
5. COc1ccc(/C=C/C=C2C(=O)C=CC2=O)cc1

Non-toxic
Non-toxic
Non-toxic
Non-toxic
Non-toxic

Provide each entry's Activity from the list below.
1. CN(C)c1ccc(C=C2C(=O)C=CC2=O)cc1
2. COc1ccc(C=C2C(=O)C=CC2=O)cc1

["Non-toxic", "Non-toxic"]

----------
# System: Candida tropicalis
# test: Antifungal activity against Candida tropicalis 156 after 48 hrs by microdilution method
# Assay type: functional
# condition-description: Candida tropicalis, 156, 48 h
One threshold, 30 µM, splits the recorded IC80 values: lower ones are yes, equal or higher ones are no.

Hi there! Is IC80 for `O=C1C=CC(=O)C1=Cc1cccc(Br)c1` below 30 µM, do you know? no

And what about the compound `O=C1C=CC(=O)C1=Cc1ccccc1` ? yes

Would you mind doing `O=C1C=CC(=O)C1=Cc1ccc(Cl)cc1` as well? no

# iterate: COC(/C=C/c1ccccc1)=C1\C(=O)C=C(C)C1=O [CORUSCANONE A] yes

# repeat for `CN(C)c1ccc(C=C2C(=O)C=CC2=O)cc1` no

Now give it for `O=C1C=CC(=O)C1=C/C=C/c1ccc(Cl)cc1` too. no

Try the compound `O=C1C=CC(=O)C1=Cc1ccc(Br)cc1` yes

----------
# System: Nakaseomyces glabratus
# test: Antifungal activity against Candida glabrata 20/I after 48 hrs by microdilution method
# Format: functional
Please provide measured IC80 for the entries that follow.

Before answering, review these 5 worked examples.
[[record]]
smiles_notation = "O=C1C=CC(=O)C1=C/C=C/c1ccc(Cl)cc1"
measured_on = "Nakaseomyces glabratus"
test_value = "62.5 µM"

[[record]]
smiles_notation = "O=C1C=CC(=O)C1=Cc1ccccc1"
measured_on = "Nakaseomyces glabratus"
test_value = "7.81 µM"

[[record]]
smiles_notation = "OC(Cn1cncn1)(Cn1cncn1)c1ccc(F)cc1F"
measured_on = "Nakaseomyces glabratus"
test_value = "> 50 µM"

[[record]]
smiles_notation = "Cc1ccc(/C=C/C=C2C(=O)C=CC2=O)cc1"
measured_on = "Nakaseomyces glabratus"
test_value = "31.2 µM"

[[record]]
smiles_notation = "O=C1C=CC(=O)C1=C/C=C/c1ccccc1"
measured_on = "Nakaseomyces glabratus"
test_value = "31.2 µM"


Below is a list of compounds. For each, state its recorded IC80.
1. O=C1C=CC(=O)C1=Cc1ccc(Br)cc1
2. COc1ccc(/C=C/C=C2C(=O)C=CC2=O)cc1

["15.6 µM", "250 µM"]

----------
# Test system: Clavispora lusitaniae
# test: Antifungal activity against Candida lusitaniae 2446/I after 24 hrs by microdilution method
# Assay type: functional
parameter: IC80 (µM)
Answers are plain numbers, in µM.

[[record]]
smiles_notation = "COc1ccc(/C=C/C=C2C(=O)C=CC2=O)cc1"
measured_on = "Clavispora lusitaniae"
parameter = "IC80"
test_value = 250

[[record]]
smiles_notation = "O=C1C=CC(=O)C1=Cc1cccc(Br)c1"
measured_on = "Clavispora lusitaniae"
parameter = "IC80"
test_value = 31.2


Switching to the query record.
What value of IC80 has been recorded for this entry: `CN(C)c1ccc(C=C2C(=O)C=CC2=O)cc1` 7.81

----------
# System: Trichophyton mentagrophytes
# test: Antifungal activity against Trichophyton mentagrophytes 445 after 72 hrs by microdilution method
# Assay type: functional, organism-based
# condition-description: Trichophyton mentagrophytes, 445, 72 h
For each of the compounds below, state its IC80.

Known results for compounds:
[[record]]
smiles_notation = "O=C1C=CC(=O)C1=C/C=C/c1ccc(Cl)cc1"
test_value = "62.5 µM"

[[record]]
smiles_notation = "O=C1C=CC(=O)C1=Cc1ccc(Cl)cc1"
test_value = "125 µM"

[[record]]
smiles_notation = "O=C1C=CC(=O)C1=Cc1ccccc1"
test_value = "1.95 µM"

[[record]]
smiles_notation = "O=C1C=CC(=O)C1=Cc1cccc(Br)c1"
test_value = "15.6 µM"

[[record]]
smiles_notation = "OC(Cn1cncn1)(Cn1cncn1)c1ccc(F)cc1F"
test_value = "17 µM"


For every item below, please supply its IC80.
1. O=C1C=CC(=O)C1=Cc1ccc(Br)cc1
2. COc1ccc(C=C2C(=O)C=CC2=O)cc1

15.6 µM
3.9 µM

----------
Exercise: for every item that follows, state its recorded log10 of IC80.
# Tested on: Trichophyton mentagrophytes
# test: Antifungal activity against Trichophyton mentagrophytes 445 after 72 hrs by microdilution method
# Type: functional, organism-based
# condition-description: Trichophyton mentagrophytes, 445, 72 h
Note the log scale: values are log10 of IC80 expressed in µM.

[[record]]
smiles_notation = "O=C1C=CC(=O)C1=C/C=C/c1ccccc1"
test_value = 0.89


Hi! Can you tell me log10 of IC80 for each of these compounds?
1. Cc1ccc(/C=C/C=C2C(=O)C=CC2=O)cc1
2. COc1ccc(/C=C/C=C2C(=O)C=CC2=O)cc1
3. O=C1C=CC(=O)C1=Cc1cccs1
4. O=C1C=CC(=O)C1=Cc1ccc(F)cc1
5. Cc1ccc(C=C2C(=O)C=CC2=O)cc1
6. CN(C)c1ccc(C=C2C(=O)C=CC2=O)cc1

1: 2.10; 2: 2.40; 3: 1.19; 4: 1.19; 5: 2.10; 6: -0.01

----------
# System: Candida albicans
# test: Antifungal activity against Candida albicans ATCC 44859 after 24 hrs by microdilution method
# Type: functional
# condition-description: ATCC 44859, 24 h
Would you kindly list IC80 for each of these molecules?
Numbers only, in µM.

Use the examples below as a reference point.
[[record]]
smiles_notation = "Cc1ccc(C=C2C(=O)C=CC2=O)cc1"
measured_on = "Candida albicans"
parameter = "IC80"
endpoint_unit = "µM"
test_value = 3.9

[[record]]
smiles_notation = "O=C1C=CC(=O)C1=Cc1cccc(Br)c1"
measured_on = "Candida albicans"
parameter = "IC80"
endpoint_unit = "µM"
test_value = 15.6

[[record]]
smiles_notation = "O=C1C=CC(=O)C1=Cc1ccc(F)cc1"
measured_on = "Candida albicans"
parameter = "IC80"
endpoint_unit = "µM"
test_value = 7.81


Now for another entry.
Any idea what IC80 was measured for `O=C1C=CC(=O)C1=C/C=C/c1ccc(Cl)cc1` ? 62.5
